TARGET UNDER TEST: Muscarinic acetylcholine receptor M4 (Homo sapiens)
METHOD: M4-linked GIRK flux change, two-sided – cell-based, HEK293 M4/GIRK, thallium flux, BTC-AM, M4 allosteric agonist project, primary screen (AID 625);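 further: thallium influx through GIRK channels coupled to M4 in HEK293 cells with BTC-AM dye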
CONDITION SET: at 10 µM, actives lie on both sides
Field: label. Allowed values: Criterion met (fluorescence slope < 0.006) or Criterion not met (fluorescence slope >= 0.006).

>  <COMPOUND>
CCCOc1cccc(CN2CCCCC2c2cccnc2)c1 (stereo not drawn)

>  <TARGET UNDER TEST>
Muscarinic acetylcholine receptor M4 (Homo sapiens)

>  <LABEL CLASS>
Criterion not met

$$$$
>  <COMPOUND>
Cc1cc2c(c(=O)n1CCN(C)C)C(c1ccncc1)C(C#N)=C(N)O2 (stereo not drawn)

>  <TARGET UNDER TEST>
Muscarinic acetylcholine receptor M4 (Homo sapiens)

>  <LABEL CLASS>
Criterion met

$$$$
>  <COMPOUND>
Cc1ccc(Cn2c(SCC(C)C)nc3c2c(=O)n(C)c(=O)n3C)cc1

>  <TARGET UNDER TEST>
Muscarinic acetylcholine receptor M4 (Homo sapiens)

>  <LABEL CLASS>
Criterion met

$$$$
>  <COMPOUND>
O=C(COC(=O)c1ccco1)NCc1cccs1

>  <TARGET UNDER TEST>
Muscarinic acetylcholine receptor M4 (Homo sapiens)

>  <LABEL CLASS>
Criterion met

$$$$
>  <COMPOUND>
COc1ccccc1N1CCN(C(=O)c2ccc(CS(=O)(=O)c3ccccc3OC)o2)CC1

>  <TARGET UNDER TEST>
Muscarinic acetylcholine receptor M4 (Homo sapiens)

>  <LABEL CLASS>
Criterion not met

$$$$
>  <COMPOUND>
Cc1ccc(-c2csc3nnc(SCC(=O)NCc4ccco4)n23)cc1

>  <TARGET UNDER TEST>
Muscarinic acetylcholine receptor M4 (Homo sapiens)

>  <LABEL CLASS>
Criterion met

$$$$
>  <COMPOUND>
CCN(CC)S(=O)(=O)N1CCC(C(=O)NCC2COc3ccccc3O2)CC1 (stereo not drawn)

>  <TARGET UNDER TEST>
Muscarinic acetylcholine receptor M4 (Homo sapiens)

>  <LABEL CLASS>
Criterion not met

$$$$
>  <COMPOUND>
CC1CN(CC(O)COc2ccc(C(C)C)cc2)CC(C)O1 (stereo not drawn)

>  <TARGET UNDER TEST>
Muscarinic acetylcholine receptor M4 (Homo sapiens)

>  <LABEL CLASS>
Criterion met

$$$$
>  <COMPOUND>
CC(C)=CC/C=C1\CCC(C(=O)O)C(C(=O)O)C1 (stereo not drawn)

>  <TARGET UNDER TEST>
Muscarinic acetylcholine receptor M4 (Homo sapiens)

>  <LABEL CLASS>
Criterion met

$$$$
>  <COMPOUND>
Cc1cc(C)c(Cn2c(=O)n(CCCC(=O)NCc3ccco3)c(=O)c3ccccc32)c(C)c1

>  <TARGET UNDER TEST>
Muscarinic acetylcholine receptor M4 (Homo sapiens)

>  <LABEL CLASS>
Criterion not met

$$$$
>  <COMPOUND>
Cn1c(=O)c2c(nc(SCC(=O)O)n2Cc2cccc(C(F)(F)F)c2)n(C)c1=O

>  <TARGET UNDER TEST>
Muscarinic acetylcholine receptor M4 (Homo sapiens)

>  <LABEL CLASS>
Criterion met

$$$$
>  <COMPOUND>
c1ccc2c(c1)Cn1c-2nc2ccccc21

>  <TARGET UNDER TEST>
Muscarinic acetylcholine receptor M4 (Homo sapiens)

>  <LABEL CLASS>
Criterion met

$$$$
>  <COMPOUND>
N#CCSc1nc2c(c(C3CC=CCC3)c1C#N)CCC2 (stereo not drawn)

>  <TARGET UNDER TEST>
Muscarinic acetylcholine receptor M4 (Homo sapiens)

>  <LABEL CLASS>
Criterion met

$$$$
>  <COMPOUND>
O=C(CP(=O)(CO)CO)c1ccc(Cl)cc1

>  <TARGET UNDER TEST>
Muscarinic acetylcholine receptor M4 (Homo sapiens)

>  <LABEL CLASS>
Criterion met

$$$$
>  <COMPOUND>
CCN1CCN(c2nc(-c3cccnc3)nc3ccccc23)CC1

>  <TARGET UNDER TEST>
Muscarinic acetylcholine receptor M4 (Homo sapiens)

>  <LABEL CLASS>
Criterion not met

$$$$
>  <COMPOUND>
CSc1cccc(NC(=O)C2CCN(S(C)(=O)=O)CC2)c1

>  <TARGET UNDER TEST>
Muscarinic acetylcholine receptor M4 (Homo sapiens)

>  <LABEL CLASS>
Criterion met

$$$$
>  <COMPOUND>
O=c1c2nnn(Cc3ccccc3)c2ncn1-c1ccccc1

>  <TARGET UNDER TEST>
Muscarinic acetylcholine receptor M4 (Homo sapiens)

>  <LABEL CLASS>
Criterion met

$$$$
>  <COMPOUND>
Cc1cc2c(s1)c1cnn(CC(=O)NCCc3ccccc3)c(=O)c1n2C

>  <TARGET UNDER TEST>
Muscarinic acetylcholine receptor M4 (Homo sapiens)

>  <LABEL CLASS>
Criterion not met

$$$$
>  <COMPOUND>
O=C(Nc1ccccc1)c1ccc(NCC2CCCO2)c(S(=O)(=O)N2CCOCC2)c1 (stereo not drawn)

>  <TARGET UNDER TEST>
Muscarinic acetylcholine receptor M4 (Homo sapiens)

>  <LABEL CLASS>
Criterion met

$$$$
>  <COMPOUND>
O=C(Cc1ccc(S(=O)(=O)N2CCCC2)s1)Nc1nc2c(s1)CCCC2

>  <TARGET UNDER TEST>
Muscarinic acetylcholine receptor M4 (Homo sapiens)

>  <LABEL CLASS>
Criterion met

$$$$
>  <COMPOUND>
CCC(=O)c1ccc(OCC(=O)N2CCc3cc(OC)c(OC)cc3C2)cc1

>  <TARGET UNDER TEST>
Muscarinic acetylcholine receptor M4 (Homo sapiens)

>  <LABEL CLASS>
Criterion not met

$$$$
